Provenance of the data: ChEMBL document CHEMBL1144182

- System: Coxsackievirus B2
- Measurement Protocol: Antiviral activity against CVB2 infected in Vero76 cells assessed as reduction in virus plaque formation after 4 days by MTT assay
- Assay type: functional, organism-based
- Measurement Setup: Enterovirus B, Vero 76, 96 h
EC50: recorded values
Number only, in µM; omit the unit.

Example cases with answers are listed next.
- Line Notation: "CCOC(=O)N1CCN(/C=C/N=N/c2ccccc2)CC1"
  Subject Of Test: "Coxsackievirus B2"
  Unit Info: "µM"
  EC50: 12
- Line Notation: "Fc1ccccc1N1CCN(/C=C/N=N/c2ccccc2)CC1"
  Subject Of Test: "Coxsackievirus B2"
  Unit Info: "µM"
  EC50: 6
- Line Notation: "COc1ccc(/N=N/C=C2\\CCCN2C)cc1"
  Subject Of Test: "Coxsackievirus B2"
  Unit Info: "µM"
  EC50: 5
- Line Notation: "Clc1ccc(/N=N\\C2=C3CCCCN3CCC2)cc1Cl"
  Subject Of Test: "Coxsackievirus B2"
  Unit Info: "µM"
  EC50: 38

Below: the item to evaluate.
Lookup: Would you mind telling me what EC50 value was observed for FC(F)(F)c1cc(/N=N/C=C2\CCCN2Cc2ccccc2)ccc1Cl ?
Found: 30
